Read-out: Collagen III, COL3A1 (gene 1281)
Experiment notes: BSK_hDFCGF_CollagenIII: BioMAP Diversity Plus: hDFCGF Assay for Collagen III Biomarker Activity (AID 2283056)
Condition details: primary human foreskin fibroblasts; actives raise or lower the signal
The source made the active and inactive calls. How the source made its calls: active means hit-call score of the fitted dose curve at least 0.9, where 1 is the maximum; inactive means score below 0.9.
Experimental endpoint: AC50

Solved cases below.
- Compound: "CC(CCl)OP(=O)(OC(C)CCl)OC(C)CCl (stereo unspecified)"
  Recorded value: "inactive"
- Compound: "FC(F)(F)C(F)(F)C(F)(F)C(F)(F)C(F)(F)C(F)(F)C(F)(F)I"
  Recorded value: "inactive"
- Compound: "FC(F)(F)C(F)(F)C(F)(F)C(F)(F)C(F)(F)CCI"
  Recorded value: "inactive"
- Compound: "CCCCNc1ccccc1"
  Recorded value: "inactive"
- Compound: "OCC(F)(F)C(F)(F)C(F)(F)C(F)F"
  Recorded value: "inactive"
- Compound: "O=C(O)C(F)(F)C(F)(F)C(F)(F)F"
  Recorded value: "inactive"

Working through the 7 compounds below one at a time, give AC50 for each.
1. C=CC(=O)OCC(F)(F)C(F)(F)C(F)(F)C(F)(F)C(F)(F)C(F)(F)C(F)(F)F
2. C=C(C)C(=O)OCC(F)(F)C(F)(F)C(F)(F)C(F)(F)C(F)(F)C(F)(F)C(F)(F)F
3. O=P(O)(O)OCCC(F)(F)C(F)(F)C(F)(F)C(F)(F)C(F)(F)C(F)(F)F
4. CCCCCCCCC(F)(F)C(F)(F)C(F)(F)C(F)(F)C(F)(F)C(F)(F)F
5. CC(=O)Nc1ccc(N=Nc2cc(C)ccc2O)cc1
6. CC(C)(C)C(=O)CC(=O)C(F)(F)C(F)(F)C(F)(F)F
7. CCCCCCCCCCCCCCCC[N+](C)(C)Cc1ccccc1

*A*
inactive
inactive
inactive
inactive
inactive
inactive
0.666 µM (active)

Could you report AC50 for every entry in the following list?
1. CO[Si](OC)(c1ccccc1)c1ccccc1
2. O=S(=O)(O)C(F)(F)C(F)(F)C(F)(F)C(F)(F)C(F)(F)C(F)(F)C(F)(F)F
3. FC(F)(F)C(F)(F)C(F)(F)C(F)(F)CCI
4. CCCCOCCOCCOC(=O)CCCCC(=O)OCCOCCOCCCC
5. C=CC(F)(F)C(F)(F)C(F)(F)C(F)(F)C(F)(F)C(F)(F)C(F)(F)C(F)(F)F
6. COC(=O)CCC(F)(F)C(F)(F)C(F)(F)C(F)(F)F
7. C#C[C@]1(O)CC[C@H]2[C@@H]3CCc4cc(OC)ccc4[C@H]3CC[C@@]21C
8. O[Si](c1ccccc1)(c1ccccc1)c1ccccc1

*A*
["32 µM (active)", "inactive", "inactive", "inactive", "inactive", "inactive", "0.00348 µM (active)", "7.56 µM (active)"]

---

Experiment notes: ATG_TCF_b_cat_CIS: Attagene CIS-FACTORIAL HepG2 Assay for human T-Cell-Factor with beta-catenin (TCF/b-cat) (AID 2282965)
Condition details: HepG2 TCF/beta-catenin cis-reporter transcription, actives raise or lower the signal
Active and inactive are the calls of the source. How the source made its calls: active means hit-call score of the fitted dose curve at least 0.9, where 1 is the maximum; inactive means score below 0.9.
Select the correct class. Options are active, inactive and nothing else.

Check out these entries, answers already filled in.
- Compound: "OCC(F)(F)C(F)(F)C(F)(F)F"
  Category: "inactive"
- Compound: "CC(C)(C)C(=O)CC(=O)C(F)(F)C(F)(F)C(F)(F)F"
  Category: "inactive"
- Compound: "O=C(O)C(F)(OC(F)(F)C(F)(OC(F)(F)C(F)(F)C(F)(F)F)C(F)(F)F)C(F)(F)F (centres undefined)"
  Category: "inactive"
- Compound: "FC(F)(F)C(F)(F)C(F)(F)C(F)(F)C(F)(F)C(F)(F)C(F)(F)C(F)(F)CCS"
  Category: "inactive"
- Compound: "OCC(F)(F)C(F)(F)C(F)(F)C(F)(F)C(F)(F)C(F)(F)F"
  Category: "inactive"

*Q* Lab log entry: C=C(C)C(=O)OCC(F)(F)C(F)(F)C(F)(F)F — outcome as called in the assay?
*A* inactive

*Q* Next entry: CC/C=C\CCOC(=O)c1ccccc1
*A* inactive

*Q* // repeat for O=C(O)C(F)(F)C(F)(F)C(F)(F)C(F)(F)C(F)(F)C(F)(F)C(F)(F)C(F)(F)C(F)(F)C(F)(F)C(F)(F)C(F)(F)F and report
*A* active

*Q* // query: O=C(O)C(F)(F)C(F)(F)C(F)(F)C(F)(F)C(F)(F)C(F)(F)C(F)(F)C(F)(F)C(F)(F)C(F)(F)C(F)(F)C(F)(F)C(F)(F)F
*A* inactive

Reference for the values: PubChem BioAssay (EPA / NIEHS)
